Readings of melting point for the listed compounds

{"columns": ["compound", "melting point"],
 "data": [
  ["CCCOc1ccc(F)c2c(=O)c(-c3ccc(CC)cc3)c[nH]c12 [Example 53]", "153 to 154 °C"],
  ["CCOc1ccc(F)c2c(=O)c(-c3ccc(OC)cc3OC)c[nH]c12 [Example 12]", "154 to 155 °C"],
  ["CCCOc1cc(F)c(F)c2c(=O)c(-c3ccc(OC)cc3)c[nH]c12 [Example 21]", "198 to 200 °C"],
  ["CCCSc1ccc(F)c2c(=O)c(-c3ccc(OC)cc3)c[nH]c12 [Example 40]", "173 to 174 °C"],
  ["CCCOc1ccc(F)c2c(=O)c(-c3ccco3)c(C)[nH]c12 [Example 76]", "203 to 204 °C"],
  ["CCCOc1ccc(Cl)c2c(=O)c(-c3ccc(OC)cc3)c[nH]c12 [Example 103]", "194 to 196 °C"],
  ["CCCOc1ccc(F)c2c(=O)c(-c3ccc(OC)cc3)c(CC)[nH]c12 [Example 48]", "169 to 171 °C"],
  ["CCCOc1ccc(F)c2c(=O)c(-c3ccc(OC(C)C)cc3OC)c[nH]c12 [Example 20]", "113 to 115 °C"],
  ["COc1ccc(-c2c[nH]c3c(OCC(C)O)ccc(F)c3c2=O)cc1 (stereo not drawn) [Example 102]", "216 to 218 °C"],
  ["CCCOc1ccc(F)c2c(=O)c(-c3ccc(OC)cc3OC)c(C)[nH]c12 [Example 75]", "100 to 101 °C"],
  ["CCCOc1ccc(F)c2c(=O)c(-c3ccc(C(C)=O)cc3)c[nH]c12 [Example 54]", "180 to 181 °C"],
  ["CCCOc1ccc(F)c2c(=O)c(-c3ccco3)c[nH]c12 [Example 58]", "210 to 212 °C"],
  ["CCCOc1ccc(F)c2c(=O)c(-c3ccc(F)cc3)c(C(F)(F)F)[nH]c12 [Example 81]", "154 to 155 °C"],
  ["CCCOc1ccc(F)c2c(=O)c(-c3ccc(N(C)C)cc3)c(C(F)(F)F)[nH]c12 [Example 79]", "176 to 177 °C"],
  ["COc1ccc(-c2c[nH]c3c(N4CCCC4)ccc(F)c3c2=O)cc1 [Example 18]", "100 to 105 °C"],
  ["CCCOc1ccc(F)c2c(=O)c(-c3ccc(O)cc3OC)c[nH]c12 [Example 97]", "251 to 253 °C"],
  ["CCCOc1ccc(F)c2c(=O)c(-c3ccc(C(=O)N4CCOCC4)cc3)c[nH]c12 [Example 90]", "234 to 236 °C"],
  ["COc1ccc(-c2c[nH]c3c(-c4cc5ccccc5s4)ccc(F)c3c2=O)cc1 [Example 88]", "276 to 277 °C"]
]}

---

quantity.measured: melting point

{"columns": ["compound", "result.value"],
 "data": [
  ["CCCOc1ccc(F)c2c(=O)c(-c3ccc(OC)cc3)c(C)[nH]c12 [Example 67]", "211 to 212 °C"],
  ["O=c1c(-c2ccc(O)cc2)c[nH]c2c(O)ccc(F)c12 [Example 96]", "303 to 305 °C (dec.)"],
  ["CCOc1ccc(F)c2c(=O)c(-c3ccc(Cl)cc3Cl)c[nH]c12 [Example 13]", "236 to 237 °C"],
  ["CCCOc1ccc(F)c2c(=O)c(-c3ccc(OC)cc3F)c[nH]c12 [Example 17]", "230 to 232 °C"],
  ["CCCOc1ccc(F)c2c(=O)c(-c3ccc(N(C)C)cc3)c[nH]c12 [Example 61]", "206 to 207 °C"],
  ["CCCOc1ccc(F)c2c(=O)c(-c3ccc(OC)cc3)cn(CCOCC)c12 [Example 93]", "108 to 109 °C"],
  ["COc1ccc(-c2c[nH]c3c(N(C)C4CCCCC4)ccc(F)c3c2=O)cc1 [Example 25]", "224 to 225 °C"],
  ["CCCOc1ccc(F)c2c(=O)c(-c3ccc(CC)cc3)c(C(F)(F)F)[nH]c12 [Example 80]", "187 to 188 °C"],
  ["CCCOc1ccc(F)c2c(=O)c(-c3ccc(OC)c(Cl)c3)c[nH]c12 [Example 4]", "217 to 218 °C"]
]}
